Data origin, for the record: ChEMBL document CHEMBL5230087

Measurement Protocol: Selectivity index, ratio of CC50 for African green monkey Vero cells to EC50 for SARS-CoV-2 nCoV-2019
Format: toxicity
Experimental Setup: read-out: Selectivity Index
Recorded selectivity ratio by entry

Molecule: O=C(OC[C@H]1O[C@@H](OC(=O)c2cc(O)c(O)c(O)c2)[C@H](OC(=O)c2cc(O)c(O)c(O)c2)[C@H](OC(=O)c2cc(O)c(O)c(O)c2)[C@@H]1O)c1cc(O)c(O)c(O)c1
selectivity ratio: 240

Attention now shifts to the item below.
(Q) Would you kindly share the measured selectivity ratio for O=c1cc(-c2ccc(O)c(O)c2)oc2cc(O)cc(O)c12 ?
(A) 14.6

###

Test system: Ebolavirus
Measurement Protocol: microbe, parasite or virus in culture
Type: functional, organism-based
Experimental Setup: Orthoebolavirus
Reported Property: pEC50
// pEC50 is dimensionless: -log10 of concentration (M)

(Q) Would you kindly share the measured pEC50 for CC(C)(C)OC(=O)N[C@@H](Cc1c[nH]c2ccccc12)C(=O)NNC(=O)OCC(=O)N1CCCc2ccccc21 ?
(A) 6.71

###

Measurement Protocol: Cytotoxicity against African green monkey Vero cells by MTT assay
Assay type: toxicity, cell-based
Experimental Setup: chlorocebus sabaeus
Reported Property: CC50

(Q) Would you kindly share the measured CC50 for CN1CCN(CCOc2cc(OC3CCOCC3)c3c(Nc4c(Cl)ccc5c4OCO5)ncnc3c2)CC1 ?
(A) > 50 µM

###

Tested on: SARS-CoV-2
Measurement Protocol: Antiviral activity against SARS-COV2 infected in African green monkey Vero B cells incubated for 48 hrs by ELISA
Type: functional, organism-based
Experimental Setup: Severe acute respiratory syndrome coronavirus 2, Vero B
Reported Property: pIC50
// pIC50 is dimensionless: -log10 of concentration (M)

(Q) Would you kindly share the measured pIC50 for CCN(CC)CCCC(C)Nc1ccnc2cc(Cl)ccc12 (stereo unspecified) ?
(A) 5.95

###

Recorded log10 of IC50 by entry
Assay System: Angiotensin-converting enzyme 2 (Homo sapiens, UniProt Q9BYF1)
Sequence (Q9BYF1 whole entry): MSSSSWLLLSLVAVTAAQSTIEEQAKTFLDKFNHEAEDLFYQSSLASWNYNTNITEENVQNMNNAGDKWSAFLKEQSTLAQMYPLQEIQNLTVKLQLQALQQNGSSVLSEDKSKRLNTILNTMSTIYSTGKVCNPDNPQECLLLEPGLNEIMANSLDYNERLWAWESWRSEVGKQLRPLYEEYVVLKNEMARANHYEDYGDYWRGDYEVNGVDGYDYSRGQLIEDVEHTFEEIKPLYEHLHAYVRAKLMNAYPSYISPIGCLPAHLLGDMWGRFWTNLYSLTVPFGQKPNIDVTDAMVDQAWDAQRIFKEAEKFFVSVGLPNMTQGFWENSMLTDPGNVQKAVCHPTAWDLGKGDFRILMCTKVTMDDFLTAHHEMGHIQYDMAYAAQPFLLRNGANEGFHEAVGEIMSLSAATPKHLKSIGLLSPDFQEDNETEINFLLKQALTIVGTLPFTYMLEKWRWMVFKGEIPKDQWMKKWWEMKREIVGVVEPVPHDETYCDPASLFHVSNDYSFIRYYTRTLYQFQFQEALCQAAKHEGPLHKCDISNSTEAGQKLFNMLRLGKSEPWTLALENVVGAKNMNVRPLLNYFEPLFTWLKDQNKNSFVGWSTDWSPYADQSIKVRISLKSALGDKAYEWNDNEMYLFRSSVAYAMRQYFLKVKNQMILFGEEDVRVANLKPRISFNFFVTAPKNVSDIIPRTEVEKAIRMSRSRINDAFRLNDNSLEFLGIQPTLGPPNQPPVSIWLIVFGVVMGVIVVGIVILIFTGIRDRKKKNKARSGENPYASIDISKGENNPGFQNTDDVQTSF
Measurement Protocol: Inhibition of human recombinant ACE2 at 50 uM using (7Mca-Y-V-A- D -A-P- K(Knp) as a flurogenic substrate measured after 10 mins by fluorescence based analysis
Base-10 log of IC50, unit µM.

(Q) Would you kindly share the measured log10 of IC50 for CC(C)CC(NC(Cc1cncn1Cc1cc(Cl)cc(Cl)c1)C(=O)O)C(=O)O (stereo unspecified) ?
(A) -3.36

(Q) Proceed to CCC[C@@H]([C@@H](CC(C)C)C(=O)N[C@@H](CCCCNC(=O)OCc1ccccc1)C(=O)Nc1nccs1)N(O)C=O
(A) -3.00

(Q) Proceed to CC(C)CC(CC(=O)NO)C(=O)NC(Cc1ccc2ccccc2c1)C(=O)NC(C)C(N)=O (stereo unspecified)
(A) -1.00

(Q) Proceed to CCN(CCO)CCCC(C)Nc1ccnc2cc(Cl)ccc12 (stereo unspecified) [HYDROXYCHLOROQUINE]
(A) -0.14

(Q) Proceed to CCN(CC)CCCC(C)Nc1ccnc2cc(Cl)ccc12 (stereo unspecified)
(A) 0.05

(Q) Proceed to CC(C)CC(CC(=O)NO)C(=O)NC(C(=O)NC(C)C(=O)NCCN)C(C)(C)C (stereo unspecified)
(A) -0.70

###

Measurement Protocol: Cytotoxicity against african green monkey Vero cells incubated for 3 days
Type: toxicity, cell-based
Experimental Setup: chlorocebus sabaeus, time 3 day
Recorded CC50 at 72 h by entry

Solved cases below.
Molecule: O=C(Nc1ccc2c(c1)C(=O)c1ccccc1C2=O)c1ccccc1
Experimental Result: 20 µM
//
Molecule: O=c1c(O)c(-c2ccc(O)c(O)c2)oc2cc(O)cc(O)c12
Experimental Result: 3320 µM
//
Molecule: COc1ccc(S(=O)(=O)O)cc1/N=N/c1c(S(=O)(=O)O)cc2cc(Nc3nc(Nc4ccccc4)nc(Nc4cc(C)c(/N=N/c5cc(S(=O)(=O)O)cc6cc(S(=O)(=O)O)cc(O)c56)cc4OC)n3)ccc2c1O
Experimental Result: 26.9 µM
//
Molecule: CN1CCN(C(=O)N[C@@H](Cc2ccccc2)C(=O)N[C@H](/C=C/S(=O)(=O)c2ccccc2)CCc2ccccc2)CC1
Experimental Result: > 10 µM
//
Molecule: O=C(OC[C@H]1O[C@@H](OC(=O)c2cc(O)c(O)c(O)c2)[C@H](OC(=O)c2cc(O)c(O)c(O)c2)[C@H](OC(=O)c2cc(O)c(O)c(O)c2)[C@@H]1O)c1cc(O)c(O)c(O)c1
Experimental Result: 1080 µM
//
Molecule: C/C(=N/NC(N)=S)c1cccs1
Experimental Result: 100 µM
//
Molecule: CCN(CC)CCCC(C)Nc1ccnc2cc(Cl)ccc12 (stereo not drawn)
Experimental Result: > 100 µM

Attention now shifts to the item below.
(Q) Would you kindly share the measured CC50 at 72 h for O=c1cc(-c2ccc(O)c(O)c2)oc2cc(O)cc(O)c12 ?
(A) 155 µM

###

Assay System: Angiotensin-converting enzyme 2 (Homo sapiens)
Measurement Protocol: Binding affinity to ACE2 (unknown origin) at 10 uM assessed as inhibition constant
Reported Property: Ki

(Q) Would you kindly share the measured Ki for NCCNCCN1CC1 ?
(A) 459 µM

###

System: HeLa
Measurement Protocol: Antiproliferative activity against human HeLa cells assessed as reduction in cell growth inhibition
Type: functional, cell-based
Reported Property: IC50 (µM)
State just the number; it will be interpreted in µM.

(Q) Entry CN1CCN(CCOc2cc(OC3CCOCC3)c3c(Nc4c(Cl)ccc5c4OCO5)ncnc3c2)CC1 , system HeLa: what IC50 was measured?
(A) 2.4
